- Test system: FGFR4 (h) (Homo sapiens, UniProt P22455)
- Sequence (P22455 22-802): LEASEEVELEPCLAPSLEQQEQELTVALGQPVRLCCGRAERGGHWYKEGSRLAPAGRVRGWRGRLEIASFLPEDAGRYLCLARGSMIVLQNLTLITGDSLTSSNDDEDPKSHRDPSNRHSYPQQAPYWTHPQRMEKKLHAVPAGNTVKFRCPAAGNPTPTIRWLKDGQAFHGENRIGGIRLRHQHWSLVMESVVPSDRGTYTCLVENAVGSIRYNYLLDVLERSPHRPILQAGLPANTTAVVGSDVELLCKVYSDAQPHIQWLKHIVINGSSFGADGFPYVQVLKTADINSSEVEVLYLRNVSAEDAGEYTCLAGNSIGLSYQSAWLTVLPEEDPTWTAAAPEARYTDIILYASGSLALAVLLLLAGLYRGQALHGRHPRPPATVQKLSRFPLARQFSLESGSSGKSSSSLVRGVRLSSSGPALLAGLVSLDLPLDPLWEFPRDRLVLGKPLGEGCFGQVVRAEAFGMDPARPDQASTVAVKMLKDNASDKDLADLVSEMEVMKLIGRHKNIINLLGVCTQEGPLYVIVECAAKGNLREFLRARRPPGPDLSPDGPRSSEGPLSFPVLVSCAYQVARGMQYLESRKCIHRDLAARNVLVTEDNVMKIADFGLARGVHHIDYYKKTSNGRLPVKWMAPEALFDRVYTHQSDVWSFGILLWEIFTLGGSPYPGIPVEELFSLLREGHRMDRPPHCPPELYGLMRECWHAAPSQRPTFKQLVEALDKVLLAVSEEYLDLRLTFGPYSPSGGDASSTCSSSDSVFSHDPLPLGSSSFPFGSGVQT
- Assay procedure: FGFR4 (enzymatic assay), TR-FRET
- Format: biochemical
- Run conditions: FGFR 4 pIC50, 5 μM ATP, 60 min; pIC50 = -log IC50 (M); average if tested multiple times
Recorded endpoint: IC50

Exam item: Entry COc1cc(OC)cc(C(CC#N)c2ccc3ncc(-c4cnn(C)c4)cc3c2)c1 (stereo not shown) needs its IC50 filled in; supply it.
Marked response: > 1e-06 M

Exam item: Entry COc1cc(OC)cc(N(CC2CCC(=O)N2)c2ccc3ncc(-c4cnn(C)c4)cc3c2)c1 (stereo not shown) needs its IC50 filled in; supply it.
Marked response: ~1.35e-08 M

Exam item: Entry COc1cc(OC)cc(N(CCO)c2ccc3ncc(N4CCOCC4)cc3c2)c1 needs its IC50 filled in; supply it.
Marked response: > 1e-06 M

Exam item: Entry COc1cc(OC)cc(N(CC2CCN(c3nccc(OC)n3)C2)c2ccc3ncc(-c4cnn(C)c4)cc3c2)c1 (stereo not shown) needs its IC50 filled in; supply it.
Marked response: > 1e-06 M
